# protocol-details: SAD study in healthy volunteers: PK in plasma, whole blood, red blood cells
# Format: in vivo, human
# condition-description: human, plasma, po, 100 mg, HV single oral 100 mg (Cohort 2); geometric mean
experimental-endpoint: Cmax (ng/mL)
Write the answer as a number in ng/mL, unit excluded.

Cmax recorded for this molecule, O=Cc1c(O)cccc1OC[C@@H]1COCCN1C(=O)c1cccnc1CCO , is 714

---

# protocol-details: SAD study in healthy volunteers: PK in plasma, whole blood, red blood cells
# Assay type: in vivo, human
# condition-description: human, red blood cells, po, 50 mg, HV single oral 50 mg (Cohort 1); red blood cells (conc. calculated from blood, plasma, hematocrit); geometric mean
experimental-endpoint: Cmax (ng/mL)
Write the answer as a number in ng/mL, unit excluded.

Cmax recorded for this compound, O=Cc1c(O)cccc1OC[C@@H]1COCCN1C(=O)c1cccnc1CCO , is 19300
